tested on: Staphylococcus aureus; assay: Antibacterial activity against Staphylococcus aureus Rosenbach ATCC 9144 after overnight incubation by broth microdilution method; format: functional
experimental.endpoint: MIC (µg/mL)
Use µg/mL as the unit, but write only the number.

Input line: I am curious: what MIC value has been reported for `C=C1CC[C@H]2C(C)(C)CCC[C@]2(C)[C@H]1/C=C/C1=C(C2=C(/C=C/[C@H]3C(=C)CC[C@H]4C(C)(C)CCC[C@]34C)COC2=O)C(=O)OC1` ?
Output line: 52.1

Input line: // same read-out, input: CC1(C)S[C@@H]2[C@H](NC(=O)Cc3ccccc3)C(=O)N2[C@H]1C(=O)O [PENICILLIN G]
Output line: 3.91

Input line: Cool, now CN[C@@H]1[C@H](O[C@H]2[C@H](O[C@H]3[C@H](O)[C@@H](O)[C@H](N=C(N)N)[C@@H](O)[C@@H]3N=C(N)N)O[C@@H](C)[C@]2(O)C=O)O[C@@H](CO)[C@H](O)[C@H]1O [STREPTOMYCIN]
Output line: 31.2

Input line: Follow-up entry: O=C(N[C@H](CO)[C@H](O)c1ccc([N+](=O)[O-])cc1)C(Cl)Cl [CHLORAMPHENICOL]
Output line: 31.2
